assay: LNP size, PDI and zeta potential by Dynamic Light Scattering (Method A); format: physicochemical; details: LNP formulated with the lipid, DLS
reported_endpoint: Size (nm)
A number alone suffices; assume nm.

Past entries and their recorded results:
CCCCCCCC/C=C\CCCCCCCCOC(=O)C(C)(C)CCC(OCCCCCCCC/C=C\CCCCCCCC)O[Si](C)(C)OCCCCCCN(CCO)CCO (stereo not shown)    93.8
CCCCC/C=C\C/C=C\CCCCCCCCO[Si](C)(C)OC(CCCCCCC/C=C\C/C=C\CCCCC)OCCCN(C)C (stereo not shown)    90.19
CCCCCCCC/C=C\CCCCCCCC(OCCCCCCCCCCCC1CCCCC1)O[Si](C)(C)OCCCCCCN(CCO)CCO (stereo not shown)    73.11
CCCCCCCC/C=C\CCCCCCCCOC(CC[C@@H](C)C1CCC2C3CCC4C[C@H](OC)CC[C@]4(C)C3CC[C@@]21C)O[Si](C)(C)OCCCCCCN(CCO)CCO (stereo partly shown)    135.6

Now examine the next entry.
// lookup Size (nm) for CCCCC/C=C\C/C=C\CCCCCCCCOC(CCCCCCC/C=C\C/C=C\CCCCC)O[Si](C)(C)OCCCCCCN(C)CCO (stereo not shown)
149.5
